B1: CPEB3 Ribozyme (parent)
chain: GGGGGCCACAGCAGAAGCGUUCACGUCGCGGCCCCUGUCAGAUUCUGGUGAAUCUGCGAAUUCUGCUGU

Variants of: B1
assay text: self-cleavage, relative activity (ratio to wild type); higher = more cleavage; co-transcriptional
Criterion: self-cleavage meeting or surpassing 0.7. Met: YES. Not met: NO.

variant name	assigned category
C27U C39U	NO
U43G C45U	YES
G3C C54U	NO
G1C A10C	NO
G65A U69C	YES
C34G G68A	YES
G1U G5U	NO
A16G A40G	YES
A40G U55C	YES
G50A G58C	YES
G1U C9A	NO
G19C G56U	NO
C32G C45U	NO
G65C U69C	YES
A16C C33U	NO
U36C G50U	YES
G5U C27A	NO
A8C G50C	YES
G4C C57G	NO
G41C G65C	NO
